Origin of the recorded values: ChEMBL document CHEMBL3813673

test system: Plasmodium falciparum; assay: Inhibition of recombinant Plasmodium falciparum falcipain 2 assessed as hydrolysis of Cbz-Phe-Arg-AMC measured after 5 mins at 20 uM by spectrofluorometric method
recorded.metric: inhibition (%)
// units = %; emit number, no label

Some compounds with known inhibition results, for comparison:
compound	observed.result
CC1CCc2c(nc3ccc([N+](=O)[O-])cc3c2NCCCCCCNc2c3c(nc4ccc([N+](=O)[O-])cc24)CC(C)CC3)C1 (stereo not given)	56.7
c1ccc2c(NCCCCCCCCNc3c4c(nc5ccccc35)CCCC4)c3c(nc2c1)CCCC3	34.4
CCOC1CCc2nc3cc(Cl)ccc3c(NCCCCCCCCCNc3c4c(nc5cc(Cl)ccc35)CCC(OCC)C4)c2C1 (stereo not given)	25
COc1ccc2nc3c(c(NCCCCCCCCCNc4c5c(nc6ccc(OC)cc46)CCCC5)c2c1)CCCC3	62.2

API: the following record is the query input.
Ask | Would you kindly share the measured inhibition for Clc1ccc2c(NCCCCCCNc3c4c(nc5cc(Cl)ccc35)CCCC4)c3c(nc2c1)CCCC3 ?
Reply | 36.9
